# procedure-summary: Viability qHTS for spleen associated tyrosine kinase inhibitor (SYKi) naive MV4-11 cells (AID 1963823); also: nearly all actives have a fitted effect of over 40% in size
# details: MV4-11 AML viability, CellTiter-Glo luminescence, 72 h; series mostly up to 45 µM
Records with an inconclusive call do not appear. Active and inactive are the calls of the source. Calls follow the shape of the dose curve; as a rule, active = well fitted cell-killing curve with a large enough effect; inconclusive = small, poorly fitted or top-dose-only effect, or effect the other way; inactive = no such curve, though single readings can be large or run the other way.
Your answer must be one of the following: 1 (yes) = active, 0 (no) = inactive

As a guide, the following entries are already answered.
compound	discrete-label
Cn1ccc2cc3c(cc21)CCN3C(=O)Nc1cccnc1	0 (no)
C=C(C)[C@@H]1CC[C@]2(C)CC[C@]3(C)C(CCC4[C@@]5(C)CC[C@H](O)C(C)(C)C5CC[C@]43C)C12 (stereo not given in full)	0 (no)
OC1C=C2C3CN(Cc4cc5c(cc43)OCO5)C2CC1O (stereo not given)	1 (yes)
C[C@@H]1CC[C@@]2(OC1)O[C@H]1C[C@H]3[C@@H]4CC=C5C[C@@H](O)CC[C@]5(C)[C@H]4CC[C@]3(C)[C@H]1[C@@H]2C	0 (no)

Now for another entry.
Incoming: Hello, I am checking results. What call was entered for C=C1C(=O)OC2/C=C(\COC(C)=O)CC/C=C(\C=O)CC(OC(=O)CC(C)C)C12 (stereo not given) ?
Outgoing: 1 (yes)
